Target: T1, CD25 (Homo sapiens, UniProt P01589)
T1 sequence (P01589 22-272): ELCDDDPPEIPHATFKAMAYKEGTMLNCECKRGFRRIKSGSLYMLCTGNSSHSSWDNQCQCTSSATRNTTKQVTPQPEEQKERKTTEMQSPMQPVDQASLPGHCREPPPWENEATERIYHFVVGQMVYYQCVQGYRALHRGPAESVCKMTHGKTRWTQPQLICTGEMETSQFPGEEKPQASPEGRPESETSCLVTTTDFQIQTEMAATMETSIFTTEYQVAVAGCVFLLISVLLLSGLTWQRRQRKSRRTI
Assay: Binding of human IgG1 format antibodies to CD25 by Octet
Settings: read-out: Biosensor Measured CD25 Affinity
pKd: −log10 of the molar value.
assayReadout: pKd

molecule	resultValue
YU389-A03: anti-CD25 scFv clone, SEQ ID NO: 730 (protein, listed as Mus musculus) scFv: PSQTLSLTCTVSGGSISSGGYYWSWIRQHPGKGLEWIGYIYYSGSTYYNPSLKSRVTISVDTSKNQFSLKLSSVTAADTAVYYCARGNLWSGYYFWGQGTLVTVSSCARGNLWSGYYFWQSVLTQPPSVSAAPGQKVTISCSGSSSNIGNNFVSWYQQVPGTAPKLLTYDSTKRPAGIPDRFSGSKSGTSATLEIAGLQTGDEADYYCGSWDTNLSGYVFGTGTKVTVLCGSWDTNLSGYVF	8.02

Data provenance is patent US12441803B2.
